# ASSAY_REMARKS: qHTS assay to identify small molecule HDAC inhibitors (AID 1259364);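 further: wild-type HCT-116 cells with endogenous class I/II HDAC activity; top concentration of the series differs between compounds; nearly all actives have a fitted effect of over 45% in size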
# CONDITION_SUMMARY: HCT-116 HDAC-Glo I/II luminescence, 2 h; series mostly up to 92.4 µM
Records with an inconclusive call do not appear. Calls of active or inactive are those of the source. The call rests on the fitted dose curve; in most records, active means well fitted inhibition curve with a large enough effect in the repeat runs; inconclusive means weak or mixed curves; inactive means flat fitted curve, though single readings scatter.
Field 'call' accepts true (1) = active, false (0) = inactive

Here's what some known entries look like.
| COMPOUND | ASSIGNED_CLASS |
| --- | --- |
| OCCOCCOCCO | false (0) |
| CCC(O)OCCCOC (stereo not drawn) | false (0) |

// outcome(item) with item = "COc1ccc(Cl)cc1C(=O)NCCc1ccc(S(=O)(=O)NC(=O)NC2CCCCC2)cc1" false (0)

// query: "CN(C)CCOCCN(C)C" false (0)

// query: "CC(=O)Nc1ccccc1" false (0)

// query: "O=C(O)c1ccc2c(c1)C(=O)OC2=O" false (0)

// query: "Cc1cccc(O)c1" false (0)

// query: "C#C[C@]1(O)CC[C@H]2[C@@H]3CCC4=CC(=O)CC[C@@H]4[C@H]3CC[C@@]21C" false (0)

###

# TESTED_ON: Cytochrome P450 2D6 (Homo sapiens)
# ASSAY_REMARKS: Cytochrome P450 Family 2 Subfamily D Member 6 (CYP2D6) small molecule antagonists: luciferase reporter qHTS assay (AID 1671196); further: nearly all actives have a fitted effect of over 50% in size
# CONDITION_SUMMARY: P450-Glo CYP2D6 enzyme assay, luciferin luminescence, 1 h; series mostly up to 115 µM
Inconclusive results are not listed. The source made the active and inactive calls. Calls come from the whole dose curve; as a rule, active = well fitted inhibition curve with a large enough effect in the repeat runs; inconclusive = weak or mixed curves; inactive = no such curve, though single readings can be large or run the other way.
Field 'call' accepts active, inactive

| COMPOUND | ASSIGNED_CLASS |
| --- | --- |
| CCCCOC(=O)COc1ccc(Cl)cc1Cl | inactive |
| CC(C)(C)[C@@H](O)[C@@H](Cc1ccc(Cl)cc1)n1cncn1 | active |
| O=C=NCCCCCCN=C=O | inactive |
| CCN(CC)c1ccc(C(=O)c2ccccc2C(=O)O)c(O)c1 | inactive |
| CCCCCOC(C)=O | inactive |
| CCCCC(CC)COC(=O)CS (stereo not given) | active |

// outcome(item) with item = CCc1ccc(CCOc2ccc(CC3SC(=O)NC3=O)cc2)nc1 (stereo not given) inactive

// query: "O=C(OCCOCCOC(=O)c1ccccc1)c1ccccc1" inactive

// query: O=C(O)CC(C(=O)O)C(CC(=O)O)C(=O)O (stereo not given) inactive

// query: "O=[N+]([O-])c1ccc(/C=C/c2ccc([N+](=O)[O-])cc2S(=O)(=O)O)c(S(=O)(=O)O)c1" inactive

###

# ASSAY_REMARKS: qHTS assay to identify small molecule antagonists of the progesterone receptor (PR) signaling pathway - cell viability counter screen (AID 1346798);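 further: HEK293T PR-UAS-bla cells stimulated with the agonist R5020; nearly all actives have a fitted effect of over 50% in size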
# CONDITION_SUMMARY: PR-UAS-bla HEK293T viability, CellTiter-Glo luminescence, 16 h; series mostly up to 92.4 µM
Records with an inconclusive call do not appear. Activity calls are given as the source filed them. The call rests on the fitted dose curve; in most records, active means well fitted cell-killing curve with a large enough effect in the repeat runs; inconclusive means weak or mixed curves, or effect the other way; inactive means no such curve, though single readings can be large or run the other way.
MEASUREMENT_LABEL: activity change, negative = cytotoxicity

Some entries whose results are on file:
| COMPOUND | activity change, negative = cytotoxicity |
| --- | --- |
| C#C[C@]1(O)CC[C@H]2[C@@H]3CCC4=CC(=O)CC[C@@H]4[C@H]3CC[C@@]21C | inactive |
| C=CCOC(=O)c1ccccc1C(=O)OCC=C | inactive |
| C/C=C1/CC2C=CC1C2 (stereo unspecified) | inactive |
| O=C(O)CC(C(=O)O)C(CC(=O)O)C(=O)O (stereo unspecified) | inactive |
| CCCCCCCCCCCCc1ccccc1 | inactive |

Continue with the compound presented below.
Report activity change, negative = cytotoxicity for "O=C(O)[C@H](O)[C@@H](O)[C@H](O)[C@H](O)CO" please. inactive

###

# ASSAY_REMARKS: qHTS assay to identify small molecule antagonists of the peroxisome proliferator-activated receptor gamma (PPARg) signaling pathway - cell viability counter screen (AID 743194); further: nearly all actives have a fitted effect of over 55% in size
# CONDITION_SUMMARY: PPARg-bla HEK293H viability, CellTiter-Glo luminescence, 17 h, co-treated with 50 nM rosiglitazone; series mostly up to 62.6 µM
# Text: U.S. Tox21 Program National Center for Advancing Translational Sciences [NCATS] NIH Chemical Genomics Center [NCGC] U.S. Environmental Protection Agency [EPA] National Institutes of Environmental Health Sciences [NIEHS] National Toxicology Program [NTP] U.S. Food and Drug Administration [FDA] […]
Inconclusive results are not listed. The source made the active and inactive calls. The call rests on the fitted dose curve; in most records, active means well fitted cell-killing curve with a large enough effect in the repeat runs; inconclusive means weak or mixed curves, or effect the other way; inactive means no such curve, though single readings can be large or run the other way.
MEASUREMENT_LABEL: outcome

| COMPOUND | outcome |
| --- | --- |
| OC[C@H]1O[C@@](CO)(O[C@H]2O[C@H](CO)[C@@H](O)[C@H](O)[C@H]2O)[C@@H](O)[C@@H]1O | inactive |
| O=S(=O)(O)c1ccc2ccccc2c1 | inactive |
| C[Si](O[Si](C)(C)C)O[Si](C)(C)C | inactive |
| O=C(O)c1cc(=O)c2c(OCC(O)COc3cccc4oc(C(=O)O)cc(=O)c34)cccc2o1 | inactive |
| Cc1ccc2oc(=O)ccc2c1 | inactive |

I have 4 compounds here; please give me outcome for each one.
1. CC(=O)CC(=O)Nc1ccccc1C
2. CC[C@H](C)C(=O)O[C@H]1C[C@@H](C)C=C2C=C[C@H](C)[C@H](CC[C@@H]3C[C@@H](O)CC(=O)O3)[C@H]21
3. Cc1cccc(O)c1
4. CC(=O)OCC(=O)[C@@]12N=C(C)O[C@@H]1C[C@H]1[C@@H]3CCC4=CC(=O)C=C[C@]4(C)[C@H]3[C@@H](O)C[C@@]12C

["inactive", "inactive", "inactive", "inactive"]

I have 2 compounds here; please give me outcome for each one.
1. CCCCC(CC)COC(=O)C(C#N)=C(c1ccccc1)c1ccccc1 (stereo unspecified)
2. CCc1ccc(CCOc2ccc(CC3SC(=O)NC3=O)cc2)nc1 (stereo unspecified)

1. inactive
2. inactive

###

# ASSAY_REMARKS: qHTS assay to test for compound auto fluorescence at 535 nm (green) in HepG2 cells (AID 720675)
# CONDITION_SUMMARY: green autofluorescence 485/535 nm, 1 h; series mostly up to 91.3 µM
Activity calls are given as the source filed them. Calls come from the whole dose curve; as a rule, active = well fitted curve in the direction sought with a large enough effect in the repeat runs; inconclusive = weak or mixed curves; inactive = flat fitted curve, though single readings scatter.
MEASUREMENT_LABEL: outcome

| MOLECULE | outcome |
| --- | --- |
| CC(=O)CC(=O)Nc1ccccc1 | inactive |
| OC[C@H]1O[C@@](CO)(O[C@H]2O[C@H](CO)[C@@H](O)[C@H](O)[C@H]2O)[C@@H](O)[C@@H]1O | inactive |
| CCCCCCCCCCCCc1ccccc1 | inactive |
| CC[C@H](C)C(=O)O[C@H]1C[C@@H](C)C=C2C=C[C@H](C)[C@H](CC[C@@H]3C[C@@H](O)CC(=O)O3)[C@H]21 | inactive |

I have 2 molecules here; please give me outcome for each one.
1. CC(=O)CC(=O)Nc1ccccc1C
2. CCCCC(CC)COC(=O)CCCCC(=O)OCC(CC)CCCC (stereo unspecified)

["inactive", "inactive"]

###

# ASSAY_REMARKS: qHTS assay to identify small molecule agonists of the RXR signaling pathway - cell viability counter screen (AID 1159529); further: nearly all actives have a fitted effect of over 50% in size
# CONDITION_SUMMARY: RXR-alpha-bla HEK293T viability, CellTiter-Glo, 16 h; series mostly up to 76.8 µM
Inconclusive results are not listed. Calls of active or inactive are those of the source. Calls come from the whole dose curve; as a rule, active = well fitted cell-killing curve with a large enough effect in the repeat runs; inconclusive = weak or mixed curves, or effect the other way; inactive = no such curve, though single readings can be large or run the other way.
Field 'call' accepts active, inactive

Here's what some known entries look like.
| COMPOUND | ASSIGNED_CLASS |
| --- | --- |
| O=C(O)c1cc(C(=O)O)cc(S(=O)(=O)O)c1 | inactive |
| CCCCCOC(C)=O | inactive |
| O=C(O)c1cc(O)c(O)c(O)c1 | inactive |
| CC1=C(C)S(=O)(=O)CCS1(=O)=O | inactive |
| CN(C)CCC(c1ccc(Cl)cc1)c1ccccn1 (centres undefined) | active |

// outcome(item) with item = "Nc1ccccc1[N+](=O)[O-]" inactive

// query: "Cc1cccc(O)c1" inactive

// query: "CCCCCCCCCCCCCCO" inactive

// query: "O=c1[nH]nnc2ccccc12" inactive

###

# ASSAY_REMARKS: qHTS assay to identify small molecule agonists of the estrogen receptor alpha (ER-alpha) signaling pathway in the presence of an antagonist - cell viability counter screen (AID 1259386);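 further: cells exposed to compounds for 22 h at 37 °C before the viability read; nearly all actives have a fitted effect of over 30% in size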
# CONDITION_SUMMARY: VM7Luc4E2 viability, CellTiter-Fluor fluorescence, 22 h; series mostly up to 92.4 µM
Records with an inconclusive call do not appear. The source made the active and inactive calls. Calls come from the whole dose curve; as a rule, active = well fitted cell-killing curve with a large enough effect in the repeat runs; inconclusive = weak or mixed curves, or effect the other way; inactive = no such curve, though single readings can be large or run the other way.
Field 'call' accepts active, inactive

| COMPOUND | ASSIGNED_CLASS |
| --- | --- |
| Cc1ccc(N(C)C)cc1 | inactive |

// outcome(item) with item = "C[C@H]1C[C@H]2[C@@H]3CCC4=CC(=O)C=C[C@]4(C)[C@@]3(F)[C@@H](O)C[C@]2(C)[C@@]1(O)C(=O)CO" inactive

// query: "CSCCC=O" inactive

// query: "CCCSc1ccc2nc(NC(=O)OC)[nH]c2c1" inactive

// query: "O=C(O)[C@H](O)[C@@H](O)[C@H](O)[C@H](O)CO" inactive

// query: "COS(C)(=O)=O" inactive

// query: "CC(=O)CC(=O)Nc1ccccc1" inactive

meta.source: PubChem BioAssay (Tox21)
